tested on: Escherichia coli; experiment: Zone of inhibition of Escherichia coli at compound concentration of 80 mg/mL; format: functional
Property: Inhibition (mm)
Answers are plain numbers, in mm.

# annotated cases, reported Inhibition shown
COc1ccc(Cl)cc1C(=O)NCNc1ccc(S(=O)(=O)Nc2ncccn2)cc1
8.5
COc1ccc(Cl)cc1C(=O)NCN1CCOCC1
10.5
Cc1cc(NS(=O)(=O)c2ccc(N)cc2)no1 [SULFAMETHOXAZOLE]
20.5
Nc1ccc(S(=O)(=O)Nc2ncccn2)cc1 [SULFADIAZINE]
9.5

Note: attention shifts to another entry.
Please report Inhibition for the following compound: Nc1ccc(S(N)(=O)=O)cc1 [SULFANILAMIDE]
18

* * *

system: Staphylococcus aureus; assay: Zone of inhibition of Staphylococcus aureus at compound concentration of 40 mg/mL; type: functional
Friendly reminder: Inhibition below 10 mm is MET, at or above is NOT MET.

Take a look at these entries with their results.
Nc1ccc(S(=O)(=O)Nc2ncccn2)cc1
MET
Cc1cc(NS(=O)(=O)c2ccc(N)cc2)no1
NOT MET
COc1ccc(Cl)cc1C(=O)NCN1CCOCC1
NOT MET
Nc1ccc(S(N)(=O)=O)cc1 [SULFANILAMIDE]
NOT MET
COc1ccc(Cl)cc1C(=O)NCNc1ccc(S(=O)(=O)NN)cc1
MET

Given the entry "CC(=O)[N-]S(=O)(=O)c1ccc(N)cc1.[Na+]" , would its reported Inhibition be below 10 mm?
NOT MET

Given the entry "COc1ccc(Cl)cc1C(=O)NCNc1ccc(S(=O)(=O)Nc2ncccn2)cc1" , would its reported Inhibition be below 10 mm?
MET

Given the entry "COc1ccc(Cl)cc1C(=O)NCNc1ccc(S(=O)(=O)[N-]C(C)=O)cc1.[Na+]" , would its reported Inhibition be below 10 mm?
NOT MET

* * *

tested on: Staphylococcus aureus; assay: Zone of inhibition of Staphylococcus aureus at compound concentration of 80 mg/mL; format: functional
For each of the compounds below, state its Inhibition.
One number for each entry, in mm.

# annotated cases, reported Inhibition shown
CC(=O)[N-]S(=O)(=O)c1ccc(N)cc1.[Na+]
21
COc1ccc(Cl)cc1C(=O)NCNc1ccc(S(=O)(=O)Nc2ncccn2)cc1
11.5
COc1ccc(Cl)cc1C(=O)NCNc1ccc(S(=O)(=O)NN)cc1
8.5
Cc1cc(NS(=O)(=O)c2ccc(N)cc2)no1
20.5
COc1ccc(Cl)cc1C(=O)NCN1CCOCC1
13.5

Count: 3. Required value per item: Inhibition.
1. COc1ccc(Cl)cc1C(=O)NCNc1ccc(S(=O)(=O)[N-]C(C)=O)cc1.[Na+]
2. Nc1ccc(S(=O)(=O)Nc2ncccn2)cc1
3. Nc1ccc(S(N)(=O)=O)cc1 [SULFANILAMIDE]

1. 14.5
2. 7.5
3. 22.5

* * *

system: Escherichia coli; test: Zone of inhibition of Escherichia coli at compound concentration of 40 mg/mL; assay type: functional
Friendly reminder: Inhibition below 10 mm is Met, at or above is Not met.

Take a look at these entries with their results.
Cc1cc(NS(=O)(=O)c2ccc(N)cc2)no1 [SULFAMETHOXAZOLE]
Not met
Nc1ccc(S(=O)(=O)Nc2ncccn2)cc1 [SULFADIAZINE]
Met

Given the entry "COc1ccc(Cl)cc1C(=O)NCNc1ccc(S(=O)(=O)Nc2ncccn2)cc1" , would its reported Inhibition be below 10 mm?
Met

Given the entry "COc1ccc(Cl)cc1C(=O)NCN1CCOCC1" , would its reported Inhibition be below 10 mm?
Met

Given the entry Nc1ccc(S(N)(=O)=O)cc1 [SULFANILAMIDE] , would its reported Inhibition be below 10 mm?
Not met
